Each record here notes measured Ki.
Target: T1, h-FXIIa (human), P00748
T1 chain: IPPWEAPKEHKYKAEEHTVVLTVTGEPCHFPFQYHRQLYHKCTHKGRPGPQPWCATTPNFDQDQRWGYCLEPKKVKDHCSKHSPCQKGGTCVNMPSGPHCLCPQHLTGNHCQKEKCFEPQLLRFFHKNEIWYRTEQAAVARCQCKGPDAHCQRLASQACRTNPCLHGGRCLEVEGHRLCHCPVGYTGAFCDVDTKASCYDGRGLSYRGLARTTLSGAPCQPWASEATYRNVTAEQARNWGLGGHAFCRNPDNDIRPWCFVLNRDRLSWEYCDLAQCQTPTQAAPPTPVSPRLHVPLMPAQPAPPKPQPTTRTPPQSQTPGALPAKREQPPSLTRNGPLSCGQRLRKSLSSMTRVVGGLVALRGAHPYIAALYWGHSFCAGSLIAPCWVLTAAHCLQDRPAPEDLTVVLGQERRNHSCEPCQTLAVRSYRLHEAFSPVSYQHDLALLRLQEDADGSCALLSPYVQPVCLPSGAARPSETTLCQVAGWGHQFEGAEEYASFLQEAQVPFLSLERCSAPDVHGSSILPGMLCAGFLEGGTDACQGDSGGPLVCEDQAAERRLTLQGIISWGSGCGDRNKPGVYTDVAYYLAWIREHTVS
Assay: S2302 hydrolysis by h-FXIIa (5 nM), fit of residual activity; dissociation constant of the complex
Write it as a number; the unit nM goes unstated.

{"columns": ["binder", "unit_text", "measured_number"],
 "data": [
  ["RVCGIGPRPRLPWPRILMKCKKDSDCLAECVCLEHGYCG (modifications not checked) [PCTI]", "nM", 469000],
  ["AAARVCPRILMKCKKDSDCLAECVCLEHGYCG (modifications not checked) [AAA-TICA1]", "nM", 104],
  ["RVCPRILMKCKKDSDCLAECVCLEHGYCG (modifications not checked) [TICA 1]", "nM", 25.5]
]}

Inquiry: Which Ki reading was recorded for the binder RVCPRILMKCKKDSDCLAECVCLEHGYCGAAA (modifications not checked) [TICA1-AAA] ?
Reply text: 377
